Each entry below carries its recorded SDF-1-유도성 BRET 증가의 저해 백분율.
Target: CXCR4/Rluc + CXCR4/YFP (HEK293 세포의 CXCR4 동종이량체 BRET 파트너) (human; Renilla reniformis)
Sequence (chain, as listed by the source, chain 1 of 2): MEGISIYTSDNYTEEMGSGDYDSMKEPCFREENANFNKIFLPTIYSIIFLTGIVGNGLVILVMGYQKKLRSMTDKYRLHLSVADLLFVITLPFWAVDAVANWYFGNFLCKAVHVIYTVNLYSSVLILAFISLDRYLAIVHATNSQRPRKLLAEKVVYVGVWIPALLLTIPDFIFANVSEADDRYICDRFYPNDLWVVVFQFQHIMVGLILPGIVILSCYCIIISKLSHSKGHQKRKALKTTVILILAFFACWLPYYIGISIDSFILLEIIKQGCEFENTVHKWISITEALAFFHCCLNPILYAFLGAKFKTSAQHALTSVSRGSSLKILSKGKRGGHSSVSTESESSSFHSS
Sequence (chain, as listed by the source, chain 2 of 2): as the sequence (chain, as listed by the source, chain 1 of 2) above
Experiment: cell-based or functional assay
Express the result in % but write the number alone.

INSERT INTO assay_data (binder, value_reported) VALUES
  ('hz515H7 VH1 D76N VL2.2 (antibody, V domains shown) VH: EVQLVESGGGLVQPGRSLRLSCTASGFTFTDNYMSWVRQAPGKGLEWVGFIRNKANGYTTEYAASVKGRFTISRDNSKSIAYLQMNSLKTEDTAVYYCARDVGSNYFDYWGQGTLVTVSS VL: DIVMTQSPDSLAVSLGERATMSCKSSQSLFNSRTRKNYLAWYQQKPGQPPKLLIYWASARDSGVPDRFTGSGSETYFTLTISRVQAEDVAVYYCMQSFNLRTFGQGTKVEIKR', 33);

Here is another binder to look at.
## Input Recorded SDF-1-유도성 BRET 증가의 저해 백분율 for hz515H7 VH1 D76N VL2.3 (antibody, V domains shown) VH: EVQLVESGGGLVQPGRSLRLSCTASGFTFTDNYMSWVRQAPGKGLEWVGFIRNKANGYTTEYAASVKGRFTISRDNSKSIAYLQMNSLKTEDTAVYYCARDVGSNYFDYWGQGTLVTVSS VL: DIVMTQSPDSLAVSLGERATMSCKSSQSLFNSRTRKNYLAWYQQKPGQPPKLLIYWASARDSGVPDRFTGSGSETYFTLTISSLQAEDLAVYYCMQSFNLRTFGQGTKVEIKR , please?
## Output 21
